Where these numbers come from: paper PMC8364686

Experiment: Plasma pharmacokinetics of BI 187004 after single oral doses (LC–MS/MS)
Conditions: male, human, plasma, po, 360 mg, BI 187004 plasma concentrations, Mean, 360 mg single oral, planned time 5 h
measurement kind: concentration at 5 h (µM)
Give a bare numeral; the unit µM is implied.

Data point: N#Cc1ccc2c(c1)[C@H]1CCCN(C(=O)c3ccc4[nH]cnc4c3)[C@H]1C2 ; concentration at 5 h = 7.55

---

Assay: Plasma pharmacokinetics of BI 187004 after single oral doses (LC–MS/MS)
Conditions: male, human, plasma, po, 160 mg
measurement kind: Tmax
Please answer using the number first and the unit second.

The reported value for N#Cc1ccc2c(c1)[C@H]1CCCN(C(=O)c3ccc4[nH]cnc4c3)[C@H]1C2 [BI 187004] in terms of Tmax is 1 h
